// provenance: the array DNA melting data of Ke et al.

- experiment: melting temperature; UV melt of duplexes
- appliedConditions: sodium 0.22 M; strand 2 µM
Tm overview
Numeric answer only, unit °C assumed.

substance: GTGGTGGGCCGTGCGCTCTG+CAGAGCGCACGGCCCACCAC ((((((((((((((((((((+))))))))))))))))))))
unitAnnotation: °C
valueReported: 76.2

substance: GAGATTGTTTCCCTTTCAAA+TTTGAAAGGGAAACAATCTC ((((((((((((((((((((+))))))))))))))))))))
unitAnnotation: °C
valueReported: 57.6

substance: TCCACACGGTAGTAAAATTAGGCTT+AAGCCTAATTTTACTACCGTGTGGA (((((((((((((((((((((((((+)))))))))))))))))))))))))
unitAnnotation: °C
valueReported: 67.3

substance: TAACCATACTGAATACCTTTTGACG+CGTCAAAAGGTATTCAGTATGGTTA (((((((((((((((((((((((((+)))))))))))))))))))))))))
unitAnnotation: °C
valueReported: 64.3

substance: GCCCCTCCACTGGCCGACGGCAGCAGGCTC+GAGCCTGCTGCCGTCGGCCAGTGGAGGGGC ((((((((((((((((((((((((((((((+))))))))))))))))))))))))))))))
unitAnnotation: °C
valueReported: 83.6

Now look at this entry.
Q: For the substance AGCTGCAGTGGATGTGAGAA+TTCTCACATCCACTGCAGCT ((((((((((((((((((((+)))))))))))))))))))) , give its reported Tm.
Result: 67.6
